These entries and their values trace back to ChEMBL document CHEMBL1687756.

Test: Ratio of drug level in lymph node iliac to plasma in Beagle dog at 5 mg/kg administered intramuscularly after 1 month
Format: ADME, organism-based, Canis lupus familiaris
Parameters: dose 5 mg/kg, route intramuscular
Details: im
RESULT TYPE: Kp at 730.5 h

# COMPOUND, RESULT VALUE
rows = [
    ("Cc1cc(/C=C/C#N)cc(C)c1Nc1ccnc(Nc2ccc(C#N)cc2)n1 [RILPIVIRINE]", 168),
]

---

Experiment: Ratio of drug level in thymus to plasma in female Beagle dog at 400 mg/kg, sc after 3 months
Format: ADME, organism-based, Canis lupus familiaris
Parameters: dose 400 mg/kg, route subcutaneous

# SMILES, Kp at 2191.5 h
data = [
    ("Cc1cc(/C=C/C#N)cc(C)c1Nc1ccnc(Nc2ccc(C#N)cc2)n1", 2.9),
]

---

Test: Plasma concentration in female Beagle dog at 400 mg/kg, sc after 1 month
Format: ADME, organism-based, Canis lupus familiaris
Parameters: dose 400 mg/kg, route subcutaneous
Conditions: read-out: Drug uptake

# SMILES, concentration at 730.5 h, ng/g
data = [
    ("Cc1cc(/C=C/C#N)cc(C)c1Nc1ccnc(Nc2ccc(C#N)cc2)n1", 227),
]

---

Experiment: Ratio of drug level in lymph node mandibular to plasma in Beagle dog at 5 mg/kg, sc after 6 months
Assay type: ADME, organism-based, Canis lupus familiaris
Design: dose 5 mg/kg, route subcutaneous

# SMILES, Kp at 4383 h
measured = [
    ("Cc1cc(/C=C/C#N)cc(C)c1Nc1ccnc(Nc2ccc(C#N)cc2)n1", 6.1),
]

---

Assay: Cmax in Beagle dog at 5 mg/kg administered intramuscularly after 176 days
Type: ADME, organism-based, Canis lupus familiaris
Set-up: dose 5 mg/kg, route intramuscular
Details: in vivo, im

# SMILES, Cmax (ng/mL)
records = [
    ("Cc1cc(/C=C/C#N)cc(C)c1Nc1ccnc(Nc2ccc(C#N)cc2)n1", 619),
]

---

Assay: Cmax in Beagle dog at 5 mg/kg administered intramuscularly after 184 days
Format: ADME, organism-based, Canis lupus familiaris
Parameters: dose 5 mg/kg, route intramuscular
Conditions: in vivo, im

# COMPOUND, Cmax (ng/mL)
records = [
    ("Cc1cc(/C=C/C#N)cc(C)c1Nc1ccnc(Nc2ccc(C#N)cc2)n1 [RILPIVIRINE]", 173),
]

---

Test: Drug level in Beagle dog lymph node popliteal at 5 mg/kg, sc after 1 month
Format: ADME, organism-based, Canis lupus familiaris
Design: dose 5 mg/kg, route subcutaneous
Details: read-out: Drug uptake

# COMPOUND, concentration at 730.5 h [ng/g]
measured = [
    ("Cc1cc(/C=C/C#N)cc(C)c1Nc1ccnc(Nc2ccc(C#N)cc2)n1 [RILPIVIRINE]", 68.2),
]

---

Experiment: Ratio of drug level in lymph node axillar to plasma in Beagle dog at 5 mg/kg, sc after 6 months
Format: ADME, organism-based, Canis lupus familiaris
Set-up: dose 5 mg/kg, route subcutaneous
Conditions: axillary lymph node/plasma
RESULT TYPE: Kp at 4383 h

# COMPOUND, RESULT VALUE
rows = [
    ("Cc1cc(/C=C/C#N)cc(C)c1Nc1ccnc(Nc2ccc(C#N)cc2)n1 [RILPIVIRINE]", 6.7),
]
